// provenance: patent US20210261512A1

List of pIC50 values.
Biological target: NLRP3 (Homo sapiens, UniProt Q96P20)
Sequence (Q96P20 whole entry): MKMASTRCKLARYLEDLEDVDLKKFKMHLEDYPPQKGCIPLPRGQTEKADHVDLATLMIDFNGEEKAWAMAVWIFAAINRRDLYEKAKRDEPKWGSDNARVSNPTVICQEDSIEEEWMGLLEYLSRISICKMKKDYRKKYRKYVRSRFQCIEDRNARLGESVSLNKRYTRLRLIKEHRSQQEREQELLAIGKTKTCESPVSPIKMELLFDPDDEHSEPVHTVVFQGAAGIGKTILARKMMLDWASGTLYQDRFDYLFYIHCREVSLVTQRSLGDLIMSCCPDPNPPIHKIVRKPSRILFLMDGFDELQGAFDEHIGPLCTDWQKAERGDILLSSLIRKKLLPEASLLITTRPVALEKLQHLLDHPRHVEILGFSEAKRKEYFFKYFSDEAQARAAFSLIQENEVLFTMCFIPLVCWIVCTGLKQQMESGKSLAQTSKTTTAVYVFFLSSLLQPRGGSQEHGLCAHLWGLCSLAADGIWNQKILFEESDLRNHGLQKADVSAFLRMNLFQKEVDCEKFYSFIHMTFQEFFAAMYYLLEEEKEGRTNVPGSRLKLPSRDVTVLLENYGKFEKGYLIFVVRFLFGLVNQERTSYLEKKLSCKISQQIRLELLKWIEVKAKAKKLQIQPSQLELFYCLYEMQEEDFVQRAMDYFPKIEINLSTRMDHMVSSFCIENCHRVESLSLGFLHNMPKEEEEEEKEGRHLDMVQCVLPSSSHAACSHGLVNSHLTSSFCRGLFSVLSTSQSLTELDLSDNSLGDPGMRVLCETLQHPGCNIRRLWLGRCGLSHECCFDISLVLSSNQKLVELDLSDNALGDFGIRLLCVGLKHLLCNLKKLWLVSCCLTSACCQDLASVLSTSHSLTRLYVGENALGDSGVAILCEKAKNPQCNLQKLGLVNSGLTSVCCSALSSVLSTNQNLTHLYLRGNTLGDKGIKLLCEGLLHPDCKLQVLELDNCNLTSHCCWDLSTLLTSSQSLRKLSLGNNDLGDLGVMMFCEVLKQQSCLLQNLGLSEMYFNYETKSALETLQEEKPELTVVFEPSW
Experiment: THP-1 cells pyroptosis assay
Format: cell-based
Design: Seed THP-1 cells (25,000 cells/well) containing 1.0 μg/ml LPS; host or cells: THP-1
Details: LPS 1.0 μg/ml, nigericin 5 μM, resazurin readout, 10 μM top dose (Example 2: top dose of 30 μM)
pIC50: −log10 of the molar value.
OBSERVATION TYPE: pIC50

1) O=S(=O)(c1nnc(Nc2c3c(cc4c2CCC4)CCC3)[nH]1)N1CCC(O)C1 (stereo not shown) [Example 123]; ≥ 5.30
2) O=S(=O)(c1ccc(F)cc1)c1nnc(Nc2c3c(cc4c2CCC4)CCC3)[nH]1 [Example 181]; ≥ 5.30
3) CCN(CC)C[C@@H]1CCN(S(=O)(=O)c2nnc(Nc3c4c(cc5c3CCC5)CCC4)[nH]2)C1 [Example 143]; ≥ 6.30
4) COC1(c2cc([S+]([O-])c3nnc(Nc4c5c(cc6c4CCC6)CCC5)[nH]3)nn2C)COC1 (stereo not shown) [Example 26]; ≥ 5.00
5) CS(=O)(=O)c1nnc(Nc2c(-c3ccnc(OCc4ccccc4)c3)ccc3c2CCC3)[nH]1 [Example 234]; ≥ 5.30
6) COc1cc(-c2ccc3c(c2Nc2nnc(S(=O)(=O)N4CC5(CCN(C)C5)C4)[nH]2)CCO3)ccn1 [Example 214]; ≥ 6.30
7) COc1cc(-c2ccc3c(c2Nc2nnc(S(=O)(=O)c4ccn(C)n4)[nH]2)CCC3)ccn1 [Example 339]; ≥ 6.00
8) O=S(=O)(c1nnc(Nc2c3c(cc4c2CCC4)CCC3)[nH]1)N1CC[C@H](CN2CCCC2)C1 [Example 306]; ≥ 6.00
9) CN(C)C1CCN(S(=O)(=O)c2nnc(Nc3c4c(c(F)c5c3CCC5)CCC4)[nH]2)CC1 [Example 224]; ≥ 6.30
10) CS(=O)(=O)c1nnc(Nc2c3c(cc4c2CCC4)CCC3)[nH]1 [Example 75]; ≥ 5.30
11) CC(C)(O)Cn1ccc(S(=O)(=O)c2nnc(Nc3c4c(cc5c3CCC5)CCC4)[nH]2)n1 [Example 328]; ≥ 6.30
12) O=S(=O)(c1nnc(Nc2c3c(cc4c2CCC4)CCC3)[nH]1)N1CCCC1 [Example 122]; ≥ 5.30
13) CN1CCC2(C1)CN(S(=O)(=O)c1nnc(Nc3c4c(cc5c3CCC5)CCC4)[nH]1)C2 [Example 274]; ≥ 6.30
14) CN(C)CC1CCN(S(=O)(=O)c2nnc(Nc3c4c(cc5c3CCC5)CCC4)[nH]2)C1 (stereo not shown) [Example 119]; ≥ 6.30
15) O=S(=O)(c1cccnn1)c1n[nH]c(Nc2c3c(cc4c2CCC4)CCC3)n1 [Example 167]; ≥ 5.30
16) O=S(=O)(c1nnc(Nc2c3c(cc4c2CCC4)CCC3)[nH]1)N1CC2(CCOC2)C1 [Example 146]; ≥ 5.30

* * *

Biological target: NLRP3 (Homo sapiens)
Assay: THP-1 cells pyroptosis assay
Assay type: cell-based
Parameters: Seed THP-1 cells (25,000 cells/well) containing 1.0 μg/ml LPS; host or cells: THP-1
Details: LPS 1.0 μg/ml, nigericin 5 μM, resazurin readout, 10 μM top dose (Example 2: top dose of 30 μM)
pIC50: −log10 of the molar value.
Listed next: entries and their corresponding pIC50.
OBSERVATION TYPE: pIC50

1) O=S(=O)(NCc1ccncc1)c1nnc(Nc2c3c(cc4c2CCC4)CCC3)[nH]1; ≥ 5.30
2) CN1CCC(NS(=O)(=O)c2nnc(Nc3c4c(cc5c3CCC5)CCC4)[nH]2)C1 (stereo not drawn); ≥ 5.30
3) O=S(=O)(Nc1ccccc1)c1nnc(Nc2c3c(cc4c2CCC4)CCC3)[nH]1; ≥ 5.00
4) Cc1cc(-c2ccc3c(c2Nc2nnc(S(=O)(=O)N4CCC(N(C)C)CC4)[nH]2)CCC3)ccn1; ≥ 6.30
5) COc1cc(-c2ccc3c(c2Nc2nnc(S(=O)(=O)c4ccc(C(C)(C)O)cc4)[nH]2)CCC3)ccn1; ≥ 6.30
6) COc1cc(-c2ccc3c(c2Nc2nnc(S(=O)(=O)c4cccc(CN(C)C)c4)[nH]2)CCC3)ccn1; ≥ 6.30
7) O=S1(=O)CCN(S(=O)(=O)c2nnc(Nc3c4c(cc5c3CCC5)CCC4)[nH]2)CC1; ≥ 5.00
8) Cc1cc2c(c(Nc3nnc(S(C)(=O)=O)[nH]3)c1-c1ccnc(O[C@H]3CC[C@H](N(C)C)CC3)c1)CCC2; ≥ 5.30
9) COC(C)(C)C1CCN(S(=O)(=O)c2nnc(Nc3c4c(cc5c3CCC5)CCC4)[nH]2)C1 (stereo not drawn); ≥ 5.30
10) Cc1cc2c(c(Nc3nnc(S(=O)(=O)N4CCC(N(C)C)CC4)[nH]3)c1-c1ccnc(OC3CCN(C)CC3)c1)CCC2; ≥ 5.30
11) O=S(=O)(NCC1CCCCN1)c1nnc(Nc2c3c(cc4c2CCC4)CCC3)[nH]1 (stereo not drawn); ≥ 6.30
12) CC(C)c1cc(F)cc(C(C)C)c1Nc1nnc(S(=O)(=O)N2CCC3(CCCN3C)CC2)[nH]1; ≥ 6.30
13) COc1cc(-c2ccc3c(c2Nc2nnc(S(=O)(=O)N4CCC5(CCN5C)CC4)[nH]2)CCC3)ccn1; ≥ 6.30
14) CCN(CC)CCCS(=O)(=O)c1nnc(Nc2c(-c3ccnc(OC)c3)ccc3c2CCC3)[nH]1; ≥ 6.30
15) CS(=O)(=O)c1nnc(Nc2c(-c3ccnc(OC4CCCOC4)c3)ccc3c2CCC3)[nH]1 (stereo not drawn); ≥ 5.00
